# Test system: M14 melanoma
# EXPERIMENT NOTES: NCI tumour cell line growth inhibition, 48 h; in the data active means GI50 below about 0.43 µM; inactive means the rest
Log the outcome using a class from active, inactive

Each compound tested received a call. Report the one for Cc1cc(Cl)ccc1Nc1nc(C(F)(F)F)ccc1C(=O)N/N=C/c1ccc(Cl)cc1 .
inactive

Each compound tested received a call. Report the one for CNCCCn1c2c(c3ccc([N+](=O)[O-])cc3c1=O)C(=O)c1cc(OC)cnc1-2 .
active

Each compound tested received a call. Report the one for CCOC(=O)c1cc2c(n1Cc1cccc(OC)c1)-c1oncc1CCC2 .
inactive

Each compound tested received a call. Report the one for COC(=O)[C@@]12OC[C@]34[C@H]([C@@H](O)[C@@H]1O)[C@@]1(C)[C@H](O)C(=O)C=C(C)[C@@H]1C[C@H]3OC(=O)C(OC(C)=O)[C@@H]24 (stereo partly drawn) .
active

Each compound tested received a call. Report the one for CC1(N)CCN(c2cccnc2NC(=O)c2nc(-c3ncccc3C(F)(F)F)cnc2N)CC1 .
inactive

Each compound tested received a call. Report the one for COc1cccc(-c2nn(-c3ccccc3)cc2-c2ccnc(NCCCNC(=O)Nc3ccc(Cl)c(Cl)c3)c2)c1 .
inactive

Each compound tested received a call. Report the one for COc1cc2c3c(n(CCCCN)c(=O)c2cc1OC)-c1cc2c(cc1C3=O)OCO2 .
inactive

Each compound tested received a call. Report the one for CCOC(=O)c1c2c(n(Cc3ccc(Cl)cc3Cl)c1C)-c1nc[nH]c1C(=O)C2=O .
inactive

---

# System: SNB-19 CNS
# EXPERIMENT NOTES: NCI tumour cell line growth inhibition, 48 h
MEASURED ENDPOINT: TGI (µM)
Report only the number, with the unit µM understood.

Give TGI only, for CCC1CN2C(=N1)c1ccccc1-c1cc(Cl)ccc12 (centres undefined) , using SNB-19 CNS data.
30.5

Give TGI only, for COc1ccc(C(=O)/C=C/c2cccc([N+](=O)[O-])c2)c(OC)c1 , using SNB-19 CNS data.
4.37

Give TGI only, for Cc1ccc(-c2nc(C#N)c(S(=O)(=O)n3nc(C)cc3N)o2)cc1 , using SNB-19 CNS data.
28.4

Give TGI only, for Cc1ccc(/C=C/c2nnc(N/N=C/c3ccc4c(c3)OCO4)[nH]c2=O)cc1 , using SNB-19 CNS data.
37.4

---

# Test system: KM12 colon
# EXPERIMENT NOTES: NCI tumour cell line growth inhibition, 48 h
MEASURED ENDPOINT: TGI

Tell me measured TGI for CNc1ccc2c(c1)[C@@]1(C)c3ccccc3[C@@H](C2)N1C please.
78.3 µM

Tell me measured TGI for COc1ccc(C(=O)/C=C/c2cccc([N+](=O)[O-])c2)c(OC)c1 please.
7.65 µM

Tell me measured TGI for N#Cc1c(-c2ccc([N+](=O)[O-])cc2)c(C#N)c(=O)n(NS(=O)(=O)c2ccccc2)c1-c1ccccc1 please.
> 100 µM

Tell me measured TGI for C[C@]12CCc3sc(NCCc4ccccc4)nc3C1=CC[C@@H]1[C@@H]2CC[C@]2(C)C(=O)CC[C@@H]12 please.
> 100 µM

Tell me measured TGI for Cc1ccc(N2C(=O)CS/C2=C(\C#N)c2nc3ccccc3[nH]2)cc1 please.
> 100 µM

Tell me measured TGI for CC(=O)OCC1OC(c2nc3ccccc3s2)=CC(OC(C)=O)C1OC(C)=O (stereo not given) please.
> 100 µM

Tell me measured TGI for C[C@H](NC(=O)c1ccc(CNC(=O)/C=C/c2cccc(Oc3ccccc3)c2)cc1)c1ccccc1 please.
> 100 µM

Tell me measured TGI for COc1cc([C@@H]2c3cc4c(cc3[C@@H](OC(=O)c3ccc(N)cc3)C3COC(=O)[C@@H]32)OCO4)cc(OC)c1O (stereo not given in full) please.
44.7 µM

Tell me measured TGI for CCOC(=O)c1c(N)sc2c1C(C)(C(=O)OCC)CC2 (stereo not given) please.
> 100 µM

Tell me measured TGI for S=C1N(/N=C/c2c3ccccc3cc3ccccc23)C(=Nc2ccccc2)C(=Nc2ccccc2)N1c1ccccc1 please.
> 100 µM

Tell me measured TGI for CC1OC(n2c3ccccc3c3c4c(c5c6ccccc6[nH]c5c32)C(=O)N(CCN[C@@H]2CCC[C@H]2N)C4=O)CC(O)C1O (stereo not given in full) please.
6.11 µM

Tell me measured TGI for CC(C)=CCC/C(=C/CC/C(=C\CCc1ccoc1)C(=O)O)C(=O)O please.
> 100 µM

Tell me measured TGI for CC1=CC(=O)c2ccccc2C1=O please.
23 µM

Tell me measured TGI for CC(=O)O[C@H]1C(=O)[C@@]2(C)[C@H]([C@H](OC(=O)c3ccccc3)[C@]3(O)C[C@H](OC(=O)[C@H](O)[C@@H](NC(=O)c4cccc(N=[N+]=[N-])c4)c4ccccc4)C(C)=C1C3(C)C)[C@]1(OC(C)=O)CO[C@@H]1C[C@@H]2O please.
> 25 µM

Tell me measured TGI for COc1cc2ccccc2oc1=O please.
> 100 µM

Tell me measured TGI for Cc1cc2c(cc1Cl)S(=O)(=O)OC(c1ccc([N+](=O)[O-])cc1)=N2 please.
> 100 µM

Tell me measured TGI for COC(=O)C(C#CCCCCC#CC(NC(=O)OCc1ccccc1)(C(=O)OC)C(F)(F)F)(NC(=O)OCc1ccccc1)C(F)(F)F (stereo not given) please.
> 100 µM

Tell me measured TGI for NC(=O)c1c(NC(=O)c2ccccn2)sc2c1CCC(=O)C2 please.
> 100 µM

Tell me measured TGI for Cc1ccc(C(CC(=O)c2ccccc2)C2C(=O)NC(=O)NC2=O)cc1 (stereo not given) please.
> 100 µM

Tell me measured TGI for O=[N+]([O-])c1ccc2c(c1)Cc1cc(N=Cc3ccc4c(c3)OCO4)ccc1-2 please.
> 100 µM

Tell me measured TGI for CCC(C)C1=C(OC(C)=O)[N+]2([O-])Oc3ccc(-c4c(OC(C)=O)c(OC(C)=O)c(-c5ccc(OC(C)=O)cc5)c(OC(C)=O)c4OC(C)=O)cc3OC2(C(C)CC)C(=O)N1OC(C)=O (stereo not given) please.
> 50 µM

Tell me measured TGI for N.N.N.N.N.[Cl-].[Co+3].c1ccc(-c2nn[n-]n2)cc1 please.
> 100 µM

Tell me measured TGI for CCC1CN2C(=N1)c1ccccc1-c1cc(Cl)ccc12 (stereo not given) please.
12.5 µM

Tell me measured TGI for O=C(O)C1OC1(c1cccc(Cl)c1)c1ccccc1Cl (stereo not given) please.
> 100 µM

Tell me measured TGI for CN(C)CCNC(=O)c1cc([N+](=O)[O-])cc2c1Oc1ccccc1O2 please.
> 100 µM

Tell me measured TGI for CCC(C)[C@H]1O[C@]2(C=C[C@@H]1C)C[C@@H]1C[C@@H](C/C=C(\C)[C@@H](OC3C[C@H](OC)C(O[C@H]4C[C@H](OC)[C@@H](O)[C@H](C)O4)[C@H](C)O3)[C@@H](C)/C=C/C=C3\CO[C@@H]4[C@H](O)C(C)=C[C@@H](C(=O)O1)[C@]34O)O2 (stereo not given in full) please.
5.96 µM

Tell me measured TGI for OCC(O)C(Cl)CCl (stereo not given) please.
> 100 µM

Tell me measured TGI for CC(=O)OCC1OC(OC2CC3C(C)(C)C(OC(C)=O)CC[C@]3(C)C3CCC45CC4(CCC5[C@@H](C)C[C@H](O)C(O)C(C)(C)O)[C@]23C)C(O)C(O)C1O (stereo not given in full) please.
> 10 µM

Tell me measured TGI for CC1OC(OC2C[C@](O)(C(=O)CF)Cc3c(O)c4c(c(O)c32)C(=O)c2ccccc2C4=O)CC(N)C1O (stereo not given in full) please.
0.239 µM

Tell me measured TGI for COc1ccc2c(c1)[nH]c1c(/C=C/c3ccccc3)nccc12 please.
41.2 µM

Tell me measured TGI for Nc1nc(N)c2nc(CNc3ccc(C(=O)NC(CC(=O)O)C(=O)O)cc3)cnc2n1 (stereo not given) please.
> 100 µM

Tell me measured TGI for O=C1NCc2ccccc2S(=O)(=O)n2cccc21 please.
> 100 µM

Tell me measured TGI for Cc1cc(Cl)ccc1Nc1nc(C(F)(F)F)ccc1C(=O)N/N=C/c1ccc(Cl)cc1 please.
7.24 µM

Tell me measured TGI for CCN(CC)CCOc1ccc(CCc2cc(OC)c(OC)c(OC)c2)cc1 please.
> 100 µM

Tell me measured TGI for O=C(c1ccc(Cl)cc1)N(C(=O)N1CCC(c2ccccc2)CC1)c1ccccc1 please.
44.6 µM
